Where do these numbers come from? They come from patent US5036083A.

# test-system: 5-LO (Cavia porcellus, UniProt A0A286X958)
# Construct: cell free system using 5-LO isolated from guinea pig neutrophils; endogenous in cells
# Sequence (A0A286X958 1-674): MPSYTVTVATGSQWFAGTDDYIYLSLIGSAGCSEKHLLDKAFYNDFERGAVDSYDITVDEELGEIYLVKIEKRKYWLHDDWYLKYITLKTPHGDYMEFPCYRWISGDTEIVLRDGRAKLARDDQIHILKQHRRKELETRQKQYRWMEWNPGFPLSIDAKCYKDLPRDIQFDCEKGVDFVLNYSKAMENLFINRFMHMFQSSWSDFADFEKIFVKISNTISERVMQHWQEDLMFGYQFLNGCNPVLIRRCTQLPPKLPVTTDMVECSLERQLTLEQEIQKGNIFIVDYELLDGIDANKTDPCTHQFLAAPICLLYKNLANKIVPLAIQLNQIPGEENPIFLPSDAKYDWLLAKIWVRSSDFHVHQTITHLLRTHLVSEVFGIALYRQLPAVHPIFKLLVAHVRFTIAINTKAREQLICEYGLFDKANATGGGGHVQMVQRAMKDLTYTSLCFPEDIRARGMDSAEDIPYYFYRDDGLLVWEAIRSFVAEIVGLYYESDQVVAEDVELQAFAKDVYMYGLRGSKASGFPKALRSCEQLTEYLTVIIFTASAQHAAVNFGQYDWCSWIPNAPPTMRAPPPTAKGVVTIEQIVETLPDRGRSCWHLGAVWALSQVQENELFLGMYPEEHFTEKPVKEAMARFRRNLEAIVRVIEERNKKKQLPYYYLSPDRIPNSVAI
# assay-details: Test (a): in vitro spectrophotometric cell-free enzyme assay, 5-LO isolated from guinea pig neutrophils
# condition-context: 5-LO from guinea pig neutrophils
reported-endpoint: IC50 (µM)
Please reply with the bare figure in µM and do not write the unit itself.

Task item: Give IC50; test system 5-LO (Cavia porcellus, UniProt A0A286X958); molecule "CCCCCNC(=O)c1cccc2[nH]n(C)c(=O)c12"
Reply: 3.1

---

# test-system: cyclooxygenase (Rattus norvegicus)
# Construct: incubating a test compound with heparinised rat blood; from tissue; host or cells: heparinised rat blood
# Sequence (Q63921 27-602): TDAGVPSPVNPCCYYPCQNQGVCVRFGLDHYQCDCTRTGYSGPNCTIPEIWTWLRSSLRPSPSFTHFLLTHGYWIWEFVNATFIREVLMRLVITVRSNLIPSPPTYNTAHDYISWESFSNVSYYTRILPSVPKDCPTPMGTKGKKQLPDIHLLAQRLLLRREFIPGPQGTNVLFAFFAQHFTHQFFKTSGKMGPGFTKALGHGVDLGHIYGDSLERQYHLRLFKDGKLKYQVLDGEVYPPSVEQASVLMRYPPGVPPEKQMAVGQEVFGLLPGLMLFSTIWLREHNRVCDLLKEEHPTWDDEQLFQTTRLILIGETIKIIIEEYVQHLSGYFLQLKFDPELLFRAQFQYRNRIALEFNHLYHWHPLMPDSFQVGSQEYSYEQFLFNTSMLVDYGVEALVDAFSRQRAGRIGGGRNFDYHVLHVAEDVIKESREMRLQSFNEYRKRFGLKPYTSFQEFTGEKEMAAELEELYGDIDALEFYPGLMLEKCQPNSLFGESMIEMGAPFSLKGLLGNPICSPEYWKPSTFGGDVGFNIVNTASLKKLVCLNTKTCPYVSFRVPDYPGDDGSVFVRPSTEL
# assay-details: Test (b): heparinised rat blood challenged with A23187, PGE2 radioimmunoassay
# Assay type: cell-based
reported-endpoint: IC50
Just so you know, I need the unit written after the number.

Task item: Tell us which IC50 value is on record for "CCCCCNC(=O)c1cccc2[nH]n(C)c(=O)c12"
Reply: 72 µM
